System: HIV wild type (WTRVA)
Experiment: HeLa cell assay, wild type virus (WTRVA)
Format: cell-based, HIV-1
Set-up: scale not given here
Conditions: Human immunodeficiency virus 1, HeLa, HeLa-CD4-LTR-β-gal cells, wild type virus; read-out: WTRVA activity level
Where a name gives a salt, the structure may show the parent alone.
Below, each of the compounds is paired with its reported IC50 value.

Some compounds with recorded IC50:
# compound, assay-result
measured = [
    ("COc1ccc2cc(C(=O)NCc3ccc(Cl)c(Oc4cc(Cl)cc(C#N)c4)c3)[nH]c2c1", "10 to 1000 nM"),
    ("CN(C)CCCOc1ccc2[nH]c(C(=O)NCc3ccc(Cl)c(Oc4cc(Cl)cc(C#N)c4)c3F)cc2c1", "< 10 nM"),
    ("CCc1nc(Cl)c(C(=O)NCc2ccc(Cl)c(Oc3cc(Cl)cc(C#N)c3)c2F)[nH]1 [Example 77, trifluoroacetate]", "< 10 nM"),
    ("N#Cc1cc(Cl)cc(Oc2c(Cl)ccc(CNC(=O)c3[nH]c4ccccc4c3Cl)c2F)c1 [Example 75, trifluoroacetate]", "< 10 nM"),
    ("N#Cc1cc(Cl)cc(Oc2c(Cl)ccc(CNC(=O)c3csc(-c4ccncc4)n3)c2F)c1 [Example 88, trifluoroacetate]", "10 to 1000 nM"),
    ("N#Cc1cc(Cl)cc(Oc2c(Cl)ccc(CNC(=O)c3cc[nH]n3)c2F)c1", "10 to 1000 nM"),
    ("N#Cc1cc(Cl)cc(Oc2c(Cl)ccc(CNC(=O)c3cn(C(c4ccccc4)(c4ccccc4)c4ccccc4)cn3)c2F)c1", "> 1000 nM"),
    ("N#Cc1cc(Cl)cc(Oc2c(Cl)ccc(CNC(=O)c3cc4cc(OCC(CO)CO)ccc4[nH]3)c2F)c1", "< 10 nM"),
]

// IC50 value for N#Cc1cc(Cl)cc(Oc2c(Cl)ccc(CNC(=O)c3cc4cc(NC(=O)CN)ccc4[nH]3)c2F)c1 [Example 120, trifluoroacetate] : < 10 nM

For `Cc1cccc2cc(C(=O)NCc3ccc(Cl)c(Oc4cc(Cl)cc(C#N)c4)c3F)[nH]c12` the compound record lists IC50 as 10 to 1000 nM

Short answer for Cc1nn(-c2ccccc2)nc1C(=O)NCc1ccc(Cl)c(Oc2cc(Cl)cc(C#N)c2)c1F [Example 96, trifluoroacetate] : IC50 was 10 to 1000 nM

The compound `N#Cc1cc(Cl)cc(Oc2c(Cl)ccc(CNC(=O)c3cc4ccc(Cl)cc4[nH]3)c2F)c1` showed IC50 equal to 10 to 1000 nM

The compound listed as Cc1c(C(=O)NCc2ccc(Cl)c(Oc3cc(Cl)cc(C#N)c3)c2F)oc2ccccc12 [Example 48, trifluoroacetate] shows IC50 equal to 10 to 1000 nM

Please fill in: IC50 reported for `N#Cc1cc(Cl)cc(Oc2c(Cl)ccc(CNC(=O)c3cc4cc(NC(=O)c5cccnc5)ccc4[nH]3)c2F)c1` = < 10 nM

Entry `Cc1c(C(=O)NCc2ccc(Cl)c(Oc3cc(Cl)cc(C#N)c3)c2F)[nH]c2ccccc12` ; IC50 = < 10 nM

For reference, reported IC50 for `CN(Cc1ccc(Cl)c(Oc2cc(Cl)cc(C#N)c2)c1F)C(=O)c1[nH]cnc1Cl` stands at < 10 nM
